Cited source: paper PMC3038857

Exercise: state measured CLZD_CYP3A4_24 for each of the molecules provided.
- Tested on: CYP3A4
- procedure details: CLZD_CYP3A4: Change in expression of CYP3A4 (primary human hepatocytes)
- Format: cell-based
- experimental parameters: 24 hr
Reply with the value as a number alone.

Given CNc1cnn(-c2cccc(C(F)(F)F)c2)c(=O)c1Cl [row 222] , respond with its CLZD_CYP3A4_24.
5.266

Consider the molecule COc1ccc(C(c2ccc(OC)cc2)C(Cl)(Cl)Cl)cc1 [row 201] . State its measured CLZD_CYP3A4_24.
4.692

Check the records and state CLZD_CYP3A4_24 for CCOC(=O)COc1cc(-c2nn(C)c(OC(F)F)c2Cl)c(F)cc1Cl [r271]
5.138

// Input: O=S(=O)(O)C(F)(F)C(F)(F)C(F)(F)C(F)(F)C(F)(F)C(F)(F)C(F)(F)C(F)(F)F [r240] . Output its CLZD_CYP3A4_24 only.
4.541

For the molecule COc1cccc(C(=O)NN(C(=O)c2cc(C)cc(C)c2)C(C)(C)C)c1C [row 202] , give its reported CLZD_CYP3A4_24.
5.142

Given CCCCOCCOCCOCc1cc2c(cc1CCC)OCO2 [r246] , respond with its CLZD_CYP3A4_24.
5.527

Identify CLZD_CYP3A4_24 associated with the molecule CCc1cccc(C)c1N(C(=O)CCl)C(C)COC (centres unmarked) [row 208]
4.911

Item CCCCC(C#N)(Cn1cncn1)c1ccc(Cl)cc1 (centres unmarked) [row 217] : provide CLZD_CYP3A4_24
5.217

Note CLZD_CYP3A4_24 for the molecule shown: CCCC1COC(Cn2cncn2)(c2ccc(Cl)cc2Cl)O1 (centres unmarked) [r262]
6.273

Tell me CLZD_CYP3A4_24 reported for CC1(C)C(C=C(Cl)Cl)C1C(=O)OCc1cccc(Oc2ccccc2)c1 (centres unmarked) [r242]
5.668

Name the recorded CLZD_CYP3A4_24 of the item CCCN(CCC)c1c([N+](=O)[O-])cc(C(F)(F)F)c(N)c1[N+](=O)[O-] [r252] in your answer.
5.248

Answer with the recorded CLZD_CYP3A4_24 of COC(=O)N(OC)c1ccccc1COc1ccn(-c2ccc(Cl)cc2)n1 [r270] only.
5.335

Report CLZD_CYP3A4_24, nothing else, for this molecule: C#CCC1=C(C)[C@H](OC(=O)[C@H]2[C@H](C=C(C)C)C2(C)C)CC1=O [r249]
5.185

Return the recorded CLZD_CYP3A4_24 value; entry: COc1cnc(OC)n2nc(NS(=O)(=O)c3c(OCC(F)F)cccc3C(F)(F)F)nc12 [r239]
4.931

Write down CLZD_CYP3A4_24 measured for item CNC(=O)Oc1ccccc1OC(C)C [r263]
5.055

Give CLZD_CYP3A4_24 for the following molecule: C#CC(C)(C)NC(=O)c1cc(Cl)cc(Cl)c1 [r265]
4.621

Fill in CLZD_CYP3A4_24 for record Cc1cc(C)nc(NC(=O)NS(=O)(=O)c2ccccc2C(=O)OC2COC2)n1 [r232]
4.535

Provide only the value of recorded CLZD_CYP3A4_24 for CCC(C)(C)C(=O)OC1=C(c2cc(Cl)cc(Cl)c2)C(=O)OC12CCCCC2 [r285]
6.36

Using the record for CC(C)Nc1nc(Cl)nc(NC(C)C)n1 [r260] , state its measured CLZD_CYP3A4_24.
5.248

Return CLZD_CYP3A4_24 for the following molecule: CCc1nn(C)c(C(=O)NCc2ccc(C(C)(C)C)cc2)c1Cl [r291]
5.218

For the molecule CCOc1cc(Oc2ccc(C(F)(F)F)cc2Cl)ccc1[N+](=O)[O-] [r233] , report CLZD_CYP3A4_24.
5.072

Query CLZD_CYP3A4_24 for CC(COc1ccc(Oc2ccccc2)cc1)Oc1ccccn1 (centres unmarked) [r274]
5.096

Given the molecule CCN(CC)C(=O)C(C)Oc1cccc2ccccc12 (centres unmarked) [row 219] , write its reported CLZD_CYP3A4_24.
4.548

Supply measured CLZD_CYP3A4_24 of CCCN(CCC)c1c([N+](=O)[O-])cc(S(N)(=O)=O)cc1[N+](=O)[O-] [row 224] in your reply.
4.897

Give a short answer stating reported CLZD_CYP3A4_24 for CCC/C(=N\OCC)C1=C(O)CC(CC(C)SCC)CC1=O (centres unmarked) [r283] .
4.556

Name the recorded CLZD_CYP3A4_24 of the molecule listed here: COc1nc(NC(C)C)nc(NC(C)C)n1 [r255]
5.515
